Origin of measurements: patent US20210188980A1

# Max. Inhib. (%) annotations
- TESTED SYSTEM: T1, human LAG-3 ECD/Fc fusion protein (human)
- T1 construct: also called HuLAG-3 ECD/Fc
- T1 sequence (chain, as listed by the source limits assumed): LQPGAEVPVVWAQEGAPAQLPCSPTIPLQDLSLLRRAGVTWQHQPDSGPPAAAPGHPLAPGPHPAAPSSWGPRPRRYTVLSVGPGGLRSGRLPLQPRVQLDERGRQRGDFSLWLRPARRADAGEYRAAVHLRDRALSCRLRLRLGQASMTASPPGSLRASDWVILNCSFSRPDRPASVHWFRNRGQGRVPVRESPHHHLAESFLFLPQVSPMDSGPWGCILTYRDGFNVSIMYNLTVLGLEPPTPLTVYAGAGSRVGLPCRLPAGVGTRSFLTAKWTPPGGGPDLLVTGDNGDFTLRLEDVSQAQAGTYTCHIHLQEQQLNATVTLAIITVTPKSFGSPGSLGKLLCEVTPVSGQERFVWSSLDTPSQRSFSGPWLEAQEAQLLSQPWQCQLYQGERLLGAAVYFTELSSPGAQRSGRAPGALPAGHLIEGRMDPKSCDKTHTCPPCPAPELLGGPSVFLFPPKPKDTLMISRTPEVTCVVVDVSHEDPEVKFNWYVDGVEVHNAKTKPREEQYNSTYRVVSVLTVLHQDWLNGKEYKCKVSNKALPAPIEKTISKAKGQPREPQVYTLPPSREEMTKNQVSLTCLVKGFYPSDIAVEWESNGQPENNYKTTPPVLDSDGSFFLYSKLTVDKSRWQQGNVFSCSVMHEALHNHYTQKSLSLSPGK
- ASSAY REMARKS: FACS RBA, huLAG-3 ECD/Fc on Raji; competitor MHC Class II

Field: example entries. Status: answers known.
# BINDER, Max. Inhib. (%)
rows = [
    ("mAb744 (antibody, V domains shown, murine hybridoma anti-LAG-3 mAb; also called rnAb744) VH: QVQLQQSGAELVRPGTSVTLSCKASGYTFTDYEMHWMKQTPVHGLEWIGAIDPATGGTAYNQKFKGKAILTADKSSSTAYMDFRSLTSEDSAVYYCIRWGTTVFPYWGQGTLVTVS VL: DVVLTQTPLSLPVNIGDQASISCKSTKSLLNSDGFTYLDWYLQKPGQSPQLLIYLVSNRFSGVPDRFSGSGSGTDFTLKISRVEAEDLGVYYCFQSNYLPWTFGGGTKLEIK", "96.5%"),
    ("mAb747 (antibody, V domains shown, murine hybridoma anti-LAG-3 mAb; also called 3502-mAb747) VH: EVQLQQSGAELVRPGASVKLSCTASDFNIKDDYMHWVKQRPEQGLDWIGWIVPENGNTEYASKFQGKATITADTSSNTAYLQLSSLTSEDTAVYYCTVYGDYWGQGTTLTVSS VL: DIQMTQSPSSLSASLGERVSLNCRASQEISGYLSWLQQKPDGTIKRLIYAASTLDSGVPKRFSGSRSGSDYSLTISSLESEDFAAYYCLQYASYPLTFGAGTKLELK", "96.3%"),
]

Let us examine a further case.
Can you share its Max. Inhib. (%)? I mean this binder: mAb749 (antibody, V domains shown, murine hybridoma anti-LAG-3 mAb) VH: EVQLQQSGAELVRPGASVKVSCTASDFNIKDDYVHWVKQRPEQGLEWIGWIDPENGDTEYASKFQGKATITADTSSNTAYLQLSSLTSEDTAVYFCSTWDAEENYWGQGTTLSVSS VL: DIVLTQAAPSVPVTPGESVSISCRSSKSLLHSNGNTYLYWFLQRPGQSPQVLIYRMSNLASGVPVRFSGSGSGTAFTLRISRVEAEDVGVYYCMQHLEYPFTFGSGTKLEIK
93.9%
